Ref: paper PMC2949283

Target: Y337A HuAChE (Homo sapiens, UniProt P22303, Y368A)
Sequence (P22303 32-614 Y368A): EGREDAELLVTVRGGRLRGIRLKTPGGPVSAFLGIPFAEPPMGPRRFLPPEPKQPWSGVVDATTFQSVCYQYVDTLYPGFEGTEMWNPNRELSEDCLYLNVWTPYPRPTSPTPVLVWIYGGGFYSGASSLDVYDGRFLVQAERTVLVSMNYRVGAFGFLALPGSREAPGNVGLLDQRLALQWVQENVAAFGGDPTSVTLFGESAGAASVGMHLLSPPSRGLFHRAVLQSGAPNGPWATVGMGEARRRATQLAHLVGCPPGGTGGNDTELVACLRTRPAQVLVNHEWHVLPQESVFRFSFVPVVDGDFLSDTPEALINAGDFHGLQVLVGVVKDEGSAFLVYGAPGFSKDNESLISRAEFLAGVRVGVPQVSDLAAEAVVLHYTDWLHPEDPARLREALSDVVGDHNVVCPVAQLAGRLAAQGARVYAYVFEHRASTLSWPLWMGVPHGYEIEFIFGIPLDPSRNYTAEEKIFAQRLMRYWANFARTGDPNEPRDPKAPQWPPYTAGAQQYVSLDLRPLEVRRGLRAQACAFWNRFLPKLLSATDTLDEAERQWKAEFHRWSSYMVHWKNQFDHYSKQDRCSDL
Assay: HuAChE inhibition kinetics
Type: biochemical
readout-type: Kd (nM)
Use nM as the unit, but write only the number.

INSERT INTO results (compound, observed) VALUES
  ('CN1CC[C@@]2(C)c3cc(OC(=O)Nc4ccccc4)ccc3N(C)[C@@H]12 [(−)-Phenserine, phenserine]', 2750);

Attention now shifts to the item below.
Using the record for CNC(=O)Oc1ccc2c(c1)[C@]1(C)CCO[C@@H]1N2C [(−)-Physovenine, physovenine] , report its Kd.
850

====

Biological target: Y341A HuAChE (Homo sapiens, UniProt P22303, Y372A)
Assay: HuAChE inhibition kinetics
readout-type: Kd
# output: numeric value plus its unit

Y341A HuAChE (Homo sapiens, UniProt P22303, Y372A) / Kd / CN1CC[C@@]2(C)c3cc(OC(=O)Nc4ccccc4)ccc3N(C)[C@@H]12 [(−)-Phenserine, phenserine] : value?
690 nM

====

Target: E450A HuAChE (Homo sapiens, UniProt P22303, E481A)
Sequence (P22303 32-614 E481A): as the sequence (P22303 32-614 Y368A) above, with A337Y, E450A counted along it
Experiment: HuAChE inhibition kinetics
readout-type: pKd
pKd is a log-scale quantity: -log10 of the concentration expressed in molar.

Quick one: pKd of CN1CC[C@@]2(C)c3cc(OC(=O)Nc4ccccc4)ccc3N(C)[C@@H]12 [(−)-Phenserine, phenserine] ?
5.13

====

Target: F295A/F338A HuAChE (Homo sapiens, UniProt P22303, F326A/F369A)
Sequence (P22303 32-614 F326A/F369A): as the sequence (P22303 32-614 Y368A) above, with F295A, A337Y, F338A counted along it
Assay: HuAChE inhibition kinetics
readout-type: Kd (nM)
Give the number; nM is assumed, so skip it.

Recorded Kd for CN1CC[C@@]2(C)c3cc(OC(=O)Nc4ccccc4)ccc3N(C)[C@@H]12 [(−)-Phenserine, phenserine] with F295A/F338A HuAChE (Homo sapiens, UniProt P22303, F326A/F369A), please?
30
